Biological target: P2X7 (Mus musculus)
Construct: endogenous in cells; host or cells: EOC13 murine microglial cell line
Experiment: Fixed-time ethidium+ uptake assay (flow cytometry) in J774 macrophage cells
Format: cell-based, murine
property: pIC50
# pIC50 is unitless: minus log10 of the molar concentration; print number only

Prompt: Check P2X7 (Mus musculus) data and give pIC50 for CCOc1ccc(Nc2ccc(/C(=C3C=C/C(=[N+](/CC)Cc4cccc(S(=O)(=O)[O-])c4)C=C/3C)c3ccc(N(CC)Cc4cccc(S(=O)(=O)O)c4)cc3C)cc2)cc1 [BBG, Brilliant Blue G] .
Response: 5.74

====

Listing of entries alongside the reported IC50.
Target: P2X7 (Mus musculus, UniProt Q9Z1M0)
Construct: endogenous in cells; host or cells: EOC13 murine microglial cell line
Sequence (Q9Z1M0 whole entry): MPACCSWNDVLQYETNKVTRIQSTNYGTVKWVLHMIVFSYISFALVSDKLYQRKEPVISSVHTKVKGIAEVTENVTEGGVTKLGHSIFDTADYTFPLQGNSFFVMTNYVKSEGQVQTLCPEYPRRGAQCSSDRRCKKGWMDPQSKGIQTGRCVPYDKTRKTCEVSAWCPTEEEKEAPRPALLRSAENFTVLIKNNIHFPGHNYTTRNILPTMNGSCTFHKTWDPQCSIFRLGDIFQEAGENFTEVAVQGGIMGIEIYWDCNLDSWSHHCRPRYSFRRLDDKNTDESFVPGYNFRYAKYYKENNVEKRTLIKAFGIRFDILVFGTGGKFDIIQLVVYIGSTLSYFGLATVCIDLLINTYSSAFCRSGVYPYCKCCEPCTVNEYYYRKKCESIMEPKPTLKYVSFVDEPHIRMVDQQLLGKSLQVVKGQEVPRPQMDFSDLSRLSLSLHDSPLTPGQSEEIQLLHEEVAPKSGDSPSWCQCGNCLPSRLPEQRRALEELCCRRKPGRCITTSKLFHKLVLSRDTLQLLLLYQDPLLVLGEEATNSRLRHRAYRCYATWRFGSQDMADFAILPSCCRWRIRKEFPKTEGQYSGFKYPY
Assay: Fixed-time ethidium+ uptake assay (flow cytometry) in J774 macrophage cells
Assay type: cell-based, murine
Settings: read-out: IC50 for impairment of 1 mM ATP-induced ethidium+ uptake; J774 cells, NaCl medium, 15 min preincubation, 1 mM ATP 5 min, 37°C
Reply numerically in µM, unit not repeated.

Sample answers from the record:
>>> observed_value("O=C(CC12CC3CC(CC(C3)C1)C2)Nc1cccc2nc(NCCNCCO)ccc12")
1
>>> observed_value("Clc1cccc(-c2nnnn2Cc2cccnc2)c1Cl")
7.9

Pending compound:
Prompt: Please indicate IC50 recorded for O=C1CSC(=O)N1C(CCc1ccncc1)COc1ccc(-c2cccc([N+](=O)[O-])c2)cc1 (stereo not drawn)
Response: 1.5
